The listing below reports pIC50 for compounds tested on urease (Canavalia ensiformis).
Sequence (P07374 whole entry, looked up): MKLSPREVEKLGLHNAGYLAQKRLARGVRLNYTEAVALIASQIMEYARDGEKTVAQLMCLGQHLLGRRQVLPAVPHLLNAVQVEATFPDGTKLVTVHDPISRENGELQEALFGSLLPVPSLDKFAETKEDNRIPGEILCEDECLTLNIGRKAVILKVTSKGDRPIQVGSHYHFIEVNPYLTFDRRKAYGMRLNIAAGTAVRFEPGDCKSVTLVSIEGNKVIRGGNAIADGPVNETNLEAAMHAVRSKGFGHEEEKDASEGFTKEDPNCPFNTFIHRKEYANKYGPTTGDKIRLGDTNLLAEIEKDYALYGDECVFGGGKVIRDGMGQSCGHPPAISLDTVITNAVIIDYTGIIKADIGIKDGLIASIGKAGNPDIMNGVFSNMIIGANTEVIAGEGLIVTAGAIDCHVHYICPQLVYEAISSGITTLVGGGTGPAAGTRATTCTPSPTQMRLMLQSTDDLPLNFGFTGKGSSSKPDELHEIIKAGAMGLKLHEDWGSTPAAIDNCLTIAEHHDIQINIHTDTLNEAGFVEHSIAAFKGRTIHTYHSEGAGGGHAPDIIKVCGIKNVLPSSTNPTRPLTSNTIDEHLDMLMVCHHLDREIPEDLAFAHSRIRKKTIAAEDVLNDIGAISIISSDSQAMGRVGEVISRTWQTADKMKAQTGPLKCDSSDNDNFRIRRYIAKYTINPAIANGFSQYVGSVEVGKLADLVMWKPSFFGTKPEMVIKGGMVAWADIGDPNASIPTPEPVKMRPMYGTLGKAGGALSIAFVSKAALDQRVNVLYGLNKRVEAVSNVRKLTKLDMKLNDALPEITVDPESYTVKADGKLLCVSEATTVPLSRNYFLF
Just the number, please; pIC50 means minus log10 of the concentration in mol/L.

Past entries and their recorded results:
# Smiles code, pIC50
measured = [
    ("O=C(CNc1ccc(N2CCOCC2)nc1)N/N=C/c1ccc(Br)cc1", 5.16),
    ("O=C(CNc1ccc(N2CCOCC2)nc1)NNC(=S)Nc1ccccc1", 5.09),
    ("O=C(CNc1ccc(N2CCOCC2)nc1)N/N=C1\\SCC(=O)N1c1ccccc1", 5.35),
    ("S=c1oc(CNc2ccc(N3CCOCC3)nc2)nn1CN1CCN(c2ccccc2)CC1", 5.30),
]

Turning to the following compound.
Q: Checklist item: pIC50 tested on urease (Canavalia ensiformis), entry "O=C(CNc1ccc(N2CCOCC2)nc1)N/N=C/C=C/c1ccccc1" , value?
Result: 5.08

###

Parameter measured: melting point

# Compound, Result
data = [
    ("Sc1nnc(CNc2ccc(N3CCOCC3)nc2)o1 [Compound 7]", "221 to 222 °C"),
    ("O=C(CNc1ccc(N2CCOCC2)nc1)N/N=C/C=C/c1ccccc1 [Compound 6]", "194 to 195 °C"),
    ("Sc1nnc(CNc2ccc(N3CCOCC3)nc2)n1-c1ccccc1 [Compound 11]", "165 to 166 °C"),
    ("O=C(CNc1ccc(N2CCOCC2)nc1)N/N=C1\\SCC(=O)N1c1ccccc1 [Compound 13]", "201 to 202 °C"),
    ("S=c1oc(CNc2ccc(N3CCOCC3)nc2)nn1CN1CCN(c2ccccc2)CC1 [Compound 8]", "87 to 88 °C"),
    ("O=C(CNc1ccc(N2CCOCC2)nc1)N/N=c1\\sc(-c2ccc(Cl)cc2)cn1-c1ccccc1 [Compound 10]", "168 to 169 °C"),
    ("NNC(=O)CNc1ccc(N2CCOCC2)nc1 [Compound 4]", "175 to 177 °C"),
    ("O=C(CNc1ccc(N2CCOCC2)nc1)NNC(=S)Nc1ccccc1 [Compound 9]", "171 to 172 °C"),
]

Q: // melting point lookup, key: c1ccc(Nc2nnc(CNc3ccc(N4CCOCC4)nc3)s2)cc1 [Compound 12]
Result: 172 to 173 °C

Q: For the compound shown here, O=C(CNc1ccc(N2CCOCC2)nc1)N/N=C/c1ccc(Br)cc1 [Compound 5] , give the reported melting point.
Result: 163 to 164 °C

Q: Report melting point for CCOC(=O)CNc1ccc(N2CCOCC2)nc1 [Compound 3] please.
Result: 83 to 84 °C

###

Each item that follows carries a reported pIC50.
Target entity: urease (Canavalia ensiformis)
Notebook: values listed as pIC50 are -log10 of the concentration (mol/L).

# Smiles code, Target entity, Result
data = [
    ("CCOC(=O)CNc1ccc(N2CCOCC2)nc1", "urease (Canavalia ensiformis)", 4.88),
    ("O=C(CNc1ccc(N2CCOCC2)nc1)N/N=c1\\sc(-c2ccc(Cl)cc2)cn1-c1ccccc1", "urease (Canavalia ensiformis)", 5.63),
    ("Sc1nnc(CNc2ccc(N3CCOCC3)nc2)o1", "urease (Canavalia ensiformis)", 5.15),
]

Please look at the following compound next.
Q: For the compound "NNC(=O)CNc1ccc(N2CCOCC2)nc1" , what pIC50 is on record?
Result: 5.10
